For each entry below, report its viability, T/C value.
Test system: DU-145 multicell spheroids with HUVEC/MSC, viability
Test: Anticancer human tumor DU-145 cell line growth inhibition [IpAb]
Experimental setup: second compound 1 µM; first compound 0.3 µM; stronger effect = lower value
One number for each entry, in %.

Past entries and their recorded results:
Cn1cnc2c(F)c(Nc3ccc(Br)cc3Cl)c(C(=O)NOCCO)cc21 + CCN1CCN(Cc2ccc(Nc3ncc(F)c(-c4cc(F)c5nc(C)n(C(C)C)c5c4)n3)nc2)CC1; 44.4
CC(C)(C)c1cnc(CSc2cnc(NC(=O)C3CCNCC3)s2)o1 + CC(C)NCC(C(=O)N1CCN(c2ncnc3c2C(C)CC3O)CC1)c1ccc(Cl)cc1; 7.62

Now consider the entry below.
Noted viability, T/C for CC(=O)c1c(C)c2cnc(Nc3ccc(N4CCNCC4)cn3)nc2n(C2CCCC2)c1=O + CCN1CCN(Cc2ccc(Nc3ncc(F)c(-c4cc(F)c5nc(C)n(C(C)C)c5c4)n3)nc2)CC1 , tested on DU-145 multicell spheroids with HUVEC/MSC, viability: 60.2

###

Tested on: DU-145 multicell spheroids with HUVEC/MSC, viability
Test: Anticancer human tumor DU-145 cell line growth inhibition [IpAb]; active = viability on the fitted dose curve at most 10% of control; inactive = the rest
Experimental setup: second compound 10 µM; first compound 0.1 µM
Give your call using only these classes: 1 (active), -1 (inactive)

Cn1ncnc1[C@H]1c2n[nH]c(=O)c3cc(F)cc(c23)N[C@@H]1c1ccc(F)cc1 + CC(C)NCC(C(=O)N1CCN(c2ncnc3c2C(C)CC3O)CC1)c1ccc(Cl)cc1; -1
C=CC(=O)N1CCN(c2nc(=O)n(-c3c(C)ccnc3C(C)C)c3nc(-c4c(O)cccc4F)c(F)cc23)C(C)C1 (stereo not given) + CC(C)NCC(C(=O)N1CCN(c2ncnc3c2C(C)CC3O)CC1)c1ccc(Cl)cc1; -1
C=CCn1c(=O)c2cnc(Nc3ccc(N4CCN(C)CC4)cc3)nc2n1-c1cccc(C(C)(C)O)n1 + CC(C)NCC(C(=O)N1CCN(c2ncnc3c2C(C)CC3O)CC1)c1ccc(Cl)cc1; -1
COc1c(OCCCN2CCOCC2)ccc2c3n(c(=NC(=O)c4cnc(N)nc4)nc12)CCN3 + CC(C)NCC(C(=O)N1CCN(c2ncnc3c2C(C)CC3O)CC1)c1ccc(Cl)cc1; 1

Attention now turns to another entry.
Look up the recorded call for CC(C)n1nc(-c2ccc3oc(N)nc3c2)c2c(N)ncnc21 + CC(C)NCC(C(=O)N1CCN(c2ncnc3c2C(C)CC3O)CC1)c1ccc(Cl)cc1 in this test.
1

###

Test system: DU-145 multicell spheroids with HUVEC/MSC, viability
Test: Anticancer human tumor DU-145 cell line growth inhibition [IpAb]
Experimental setup: second compound 1 µM; first compound 0.1 µM; stronger effect = lower value
Result type: viability, T/C (%)
Give bare numbers, in %.

Past entries and their recorded results:
CC(C)n1nc(-c2ccc3oc(N)nc3c2)c2c(N)ncnc21 + CC(C)NCC(C(=O)N1CCN(c2ncnc3c2C(C)CC3O)CC1)c1ccc(Cl)cc1; 6.44
CC1(C)CCC(CN2CCN(c3ccc(C(=O)NS(=O)(=O)c4ccc(NCC5CCOCC5)c([N+](=O)[O-])c4)c(Oc4cnc5[nH]ccc5c4)c3)CC2)=C(c2ccc(Cl)cc2)C1 + CC(C)NCC(C(=O)N1CCN(c2ncnc3c2C(C)CC3O)CC1)c1ccc(Cl)cc1; 29.4

Now consider the entry below.
Query Cn1ncnc1[C@H]1c2n[nH]c(=O)c3cc(F)cc(c23)N[C@@H]1c1ccc(F)cc1 + CC(C)NCC(C(=O)N1CCN(c2ncnc3c2C(C)CC3O)CC1)c1ccc(Cl)cc1 yields viability, T/C of 33.6

###

Tested on: DU-145 multicell spheroids with HUVEC/MSC, viability
Test: Anticancer human tumor DU-145 cell line growth inhibition [IpAb];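 also: spheroids exposed to agents for seven days before measurement; percent of DMSO vehicle control viability so 100% = untreated level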
Experimental setup: second compound 10 µM; first compound 0.1 µM; stronger effect = lower value
Result type: viability, T/C (%)
Give bare numbers, in %.

Would you mind listing viability, T/C for each of the following molecules?
1. CC1(C)CCC(CN2CCN(c3ccc(C(=O)NS(=O)(=O)c4ccc(NCC5CCOCC5)c([N+](=O)[O-])c4)c(Oc4cnc5[nH]ccc5c4)c3)CC2)=C(c2ccc(Cl)cc2)C1 + CC(C)NCC(C(=O)N1CCN(c2ncnc3c2C(C)CC3O)CC1)c1ccc(Cl)cc1
2. CCCS(=O)(=O)Nc1ccc(F)c(C(=O)c2c[nH]c3ncc(-c4ccc(Cl)cc4)cc23)c1F + CC(C)NCC(C(=O)N1CCN(c2ncnc3c2C(C)CC3O)CC1)c1ccc(Cl)cc1
3. Cc1nc(NC(=O)N2CCCC2C(N)=O)sc1-c1ccnc(C(C)(C)C(F)(F)F)c1 (stereo not given) + CC(C)NCC(C(=O)N1CCN(c2ncnc3c2C(C)CC3O)CC1)c1ccc(Cl)cc1
4. Cn1ncc(Cl)c1-c1cc(C(=O)NC(CN)Cc2cccc(F)c2)sc1Cl (stereo not given) + CC(C)NCC(C(=O)N1CCN(c2ncnc3c2C(C)CC3O)CC1)c1ccc(Cl)cc1
5. Cn1nccc1Nc1nccc(-c2ccn(C(CO)c3ccc(Cl)c(F)c3)c(=O)c2)n1 (stereo not given) + CC(C)NCC(C(=O)N1CCN(c2ncnc3c2C(C)CC3O)CC1)c1ccc(Cl)cc1

1. 19.2
2. 20.1
3. 13.5
4. 19.7
5. 11.6

###

For each entry below, report its viability, T/C value.
System: DU-145 multicell spheroids with HUVEC/MSC, viability
Test: Anticancer human tumor DU-145 cell line growth inhibition [IpAb];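 also: spheroids exposed to agents for seven days before measurement; percent of DMSO vehicle control viability so 100% = untreated level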
Experimental setup: second compound 0.316 µM; first compound 10 µM; stronger effect = lower value

CC1(C)CCC(CN2CCN(c3ccc(C(=O)NS(=O)(=O)c4ccc(NCC5CCOCC5)c([N+](=O)[O-])c4)c(Oc4cnc5[nH]ccc5c4)c3)CC2)=C(c2ccc(Cl)cc2)C1 + CCN1CCN(Cc2ccc(Nc3ncc(F)c(-c4cc(F)c5nc(C)n(C(C)C)c5c4)n3)nc2)CC1; 10.8%
CC1(C)CCC(CN2CCN(c3ccc(C(=O)NS(=O)(=O)c4ccc(NCC5CCOCC5)c([N+](=O)[O-])c4)c(Oc4cnc5[nH]ccc5c4)c3)CC2)=C(c2ccc(Cl)cc2)C1 + CC(C)NCC(C(=O)N1CCN(c2ncnc3c2C(C)CC3O)CC1)c1ccc(Cl)cc1; 8.7%
CCCS(=O)(=O)Nc1ccc(F)c(C(=O)c2c[nH]c3ncc(-c4ccc(Cl)cc4)cc23)c1F + CC(C)NCC(C(=O)N1CCN(c2ncnc3c2C(C)CC3O)CC1)c1ccc(Cl)cc1; 43.6%

Query C=CCn1c(=O)c2cnc(Nc3ccc(N4CCN(C)CC4)cc3)nc2n1-c1cccc(C(C)(C)O)n1 + CC(C)NCC(C(=O)N1CCN(c2ncnc3c2C(C)CC3O)CC1)c1ccc(Cl)cc1 yields viability, T/C of 12.9%

###

Tested on: DU-145 multicell spheroids with HUVEC/MSC, viability
Test: Anticancer human tumor DU-145 cell line growth inhibition [IpAb];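 also: spheroids exposed to agents for seven days before measurement; percent of DMSO vehicle control viability so 100% = untreated level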
Experimental setup: second compound 1 µM; first compound 0.1 µM; stronger effect = lower value
Result type: viability, T/C (%)
One number for each entry, in %.

CC(C)n1nc(-c2ccc3oc(N)nc3c2)c2c(N)ncnc21 + CCN1CCN(Cc2ccc(Nc3ncc(F)c(-c4cc(F)c5nc(C)n(C(C)C)c5c4)n3)nc2)CC1; 20.3
CCCS(=O)(=O)Nc1ccc(F)c(C(=O)c2c[nH]c3ncc(-c4ccc(Cl)cc4)cc23)c1F + CCN1CCN(Cc2ccc(Nc3ncc(F)c(-c4cc(F)c5nc(C)n(C(C)C)c5c4)n3)nc2)CC1; 66.9

Now consider the entry below.
Query Cc1nc(NC(=O)N2CCCC2C(N)=O)sc1-c1ccnc(C(C)(C)C(F)(F)F)c1 (stereo not drawn) + CC(C)NCC(C(=O)N1CCN(c2ncnc3c2C(C)CC3O)CC1)c1ccc(Cl)cc1 yields viability, T/C of 24.3

###

For each entry below, report its viability, T/C value.
Test system: DU-145 multicell spheroids with HUVEC/MSC, viability
Test: Anticancer human tumor DU-145 cell line growth inhibition [IpAb];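 also: spheroids exposed to agents for seven days before measurement; percent of DMSO vehicle control viability so 100% = untreated level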
Experimental setup: second compound 0.316 µM; first compound 10 µM; stronger effect = lower value
Give bare numbers, in %.

Would you mind listing viability, T/C for each of the following compounds?
1. Cn1nccc1Nc1nccc(-c2ccn(C(CO)c3ccc(Cl)c(F)c3)c(=O)c2)n1 (stereo not given) + CCN1CCN(Cc2ccc(Nc3ncc(F)c(-c4cc(F)c5nc(C)n(C(C)C)c5c4)n3)nc2)CC1
2. C=CC(=O)N1CCN(c2nc(=O)n(-c3c(C)ccnc3C(C)C)c3nc(-c4c(O)cccc4F)c(F)cc23)C(C)C1 (stereo not given) + CCN1CCN(Cc2ccc(Nc3ncc(F)c(-c4cc(F)c5nc(C)n(C(C)C)c5c4)n3)nc2)CC1
3. Cn1ncc(Cl)c1-c1cc(C(=O)NC(CN)Cc2cccc(F)c2)sc1Cl (stereo not given) + CC(C)NCC(C(=O)N1CCN(c2ncnc3c2C(C)CC3O)CC1)c1ccc(Cl)cc1
4. Cc1nc(NC(=O)N2CCCC2C(N)=O)sc1-c1ccnc(C(C)(C)C(F)(F)F)c1 (stereo not given) + CCN1CCN(Cc2ccc(Nc3ncc(F)c(-c4cc(F)c5nc(C)n(C(C)C)c5c4)n3)nc2)CC1
5. CCCS(=O)(=O)Nc1ccc(F)c(C(=O)c2c[nH]c3ncc(-c4ccc(Cl)cc4)cc23)c1F + CCN1CCN(Cc2ccc(Nc3ncc(F)c(-c4cc(F)c5nc(C)n(C(C)C)c5c4)n3)nc2)CC1

54.8
49
1.33
16
52.4
